These entries and their values trace back to patent US20050038058A1.

tested on: HIV-1(IIIB); test: HIV-1(IIIB)-induced cytopathicity in CEM cell cultures; type: cell-based; details: Human immunodeficiency virus 1, CCRF-CEM; HIV-1 (IIIB) in CEM; Guo 10 μM; read-out: EC50 upon addition of Guo (10 μM)
# EC50 listing for each entry below
reported property: EC50 (µg/mL)

compound="Nc1ncnc2c1ncn2CCOCP(=O)(O)O [PMEA, 9-[(2-phosphono-methoxy)ethyl]adenine, reference compound]" result_value=1
compound="Nc1cc(SCCOCP(=O)(O)O)nc(N)n1 [Compound 2]" result_value=1.9
compound="Nc1cc(OCCOCP(=O)(O)O)nc(N)n1 [Compound 1]" result_value=0.65
compound="Nc1nc(O)cc(OCCOCP(=O)(O)O)n1 [Compound 4]" result_value=1.9

###

assay: Toxicity in CrFK cells; type: cell-based, feline; conditions: cat; Table 2
reported property: CC50 (mg/L)

compound="Nc1ncnc2c1ncn2CCOCP(=O)(O)O [PMEA, 9-[(2-phosphono-methoxy)ethyl]adenine, reference compound]" unit_text=mg/L result_value=18
